# measurement notes: IND-directed repeat-dose toxicology studies
# measurement conditions: dog, rat, nonhuman primate, in vivo
readout: NOAEL

For CC(C)=CCC/C(C)=C/CNCCNC1C2CC3CC(C2)CC1C3 (stereo not shown) , what is its reported NOAEL?
30 to 40 mg/kg/day

----------
# measurement notes: Phase Ia, escalating single dose
# measurement conditions: human, serum, oral, 300 mg
readout: half-life

Returns the measured half-life for the input compound. Input: CC(C)=CCC/C(C)=C/CNCCNC1C2CC3CC(C2)CC1C3 (stereo not shown) [SQ109]
61.1 h

This collection of values is drawn from paper PMC3480206.
